- measured_target: human MDR1 (multidrug resistance protein 1) (human, UniProt P08183 1-1280)
- method: cell-based or functional assay
For each of the binders below, state its IC50 of vincristine on N6/ADR cells with antibody.
// note: answer is a bare numeric in nM

Q. Need IC50 of vincristine on N6/ADR cells with antibody of B1.201 (antibody, human IgG1, V domains shown) VH: EVQLVESGGALMKPGGSLKFSCAASGFTFTNYAMSWVRQTPEKRLEWVATISSGGSNTYYSDSVKGRFTISRDNAKTTLYLQMSGLRSEDTALYYCAKFSNFGRFASWGQGTLVTVSA VL: DVLMTQTPLSLPVSLGDQASISCRFSQSIVHSSGNTYLEWYLQKPGQSPRLLIYKVSNRFFGVPDRISGSGSGTDFTLRISRVEAEDLGVYYCFQGSHVPYTFGGGTKLEIK , thanks.
A. 0.0216

Q. Need IC50 of vincristine on N6/ADR cells with antibody of B1.275 (antibody, human IgG1, V domains shown) VH: EVMLVESGGALVKPGGSLKVSCAASGFTFSNYAMSWVRQSPEMRLEWVATISSGGTNTYYPDSVKGRFTISRDNARNTLYLQMSSLRSKDTAMYYCARYSNYGWFPYWGQGTTLTVSS VL: DVVMTQTPLSLPVSLGDQASISCRSSQTIVHSDGYTYLEWYLQKPGQSPKLLIYKVSNRFSGVPDRFSGSGSGTDFTLRISRVEAEDLGVYYCFQGSHVPYTFGGGTKLEIK , thanks.
A. 0.0781

Q. Need IC50 of vincristine on N6/ADR cells with antibody of KB1.269A (antibody, human IgG1, V domains shown) VH: EVQLVESGGASVKPGGSLKLSCAASGFTFSNYAMSWVRQTPEKRLEWVATISSGGSYTYYLDSVKGRFTISRDNAKNTLYLQMSSLRSEDTALYYCARYYVYDAWFAYWGQGTLVTVSA VL: DVVMTQTPLSLPVSLGDQASISCRSSQSIVHSTGNTYLEWYLQKPGQSPKLLIYKVSNRFSGVPDRFSGSGSGTDFTLKISRVEAEDLGVFYCFQGSHVPRTFGGGTKLEIK , thanks.
A. 0.0323

Q. Need IC50 of vincristine on N6/ADR cells with antibody of B1.264 (antibody, human IgG1, V domains shown) VH: EVKLVESGGALVKPGGSLKLSCAASGFTFSNYAMSWVRQTPEKRLEWVATISSGGSNTYYPDSVMGRFTISRDNAKNTLYLQMSSLRSEDTALYYCARYSNYGWFAYWGQGTLVTVSS VL: DVVMTQTPLSLPVSLGDQASISCRSSQSIVHSNGNTYLEWYLQKPGQSPKLLIYKVSNRFSGVPDRFSGSGSGTDFTLKISRVEAEDLGVYYCFQGSLVPRTFGGGTKLEIK , thanks.
A. 0.0192

Q. Need IC50 of vincristine on N6/ADR cells with antibody of B1.99 (antibody, human IgG1, V domains shown) VH: EVQLVESGGALVKPGGSLKLSCAASGFTFSNYAMSWVRQTPERRLEWVATISSGGSYTYYPDSVKGRFTISRDNAKNTLYLQMSSLISEDTALYYCTRGYGNFAWFAYWGHGTLVTVSA VL: DVVMTQTPLSLPVSLGDQVSISCRSSQSIVHSYGSTYLEWYLQKPGQSPKLLIYKVSNRFSGVPDRFSGSGSGTDFTLKISRVEAEDLGVYFCFQGSHIPYTFGGGTKLELK , thanks.
A. 0.0619

Q. Need IC50 of vincristine on N6/ADR cells with antibody of B1.223 (antibody, human IgG1, V domains shown) VH: EVKLVESGGALVKPGGSLKLSCAASGFTFSNYAMSWVRQTPEKRLEWVATISSGGSYTYYPDSVKGRFTISRDNAKTTLYLQMSGLRSEDTALYYCAKFSNYGRFASWGQGTLVTVSS VL: DIQMIQSPLSLPVSLGDQASISCRSSQSIVHSSGNTYLEWYLQKPGQSPRLLIYKVSNRFFGVPDRISGSGSGTDFTLRISRVEAEDLGVYYCFQGSHVPYTFGGGTKLELK , thanks.
A. 0.0068

Q. Need IC50 of vincristine on N6/ADR cells with antibody of B1.89 (antibody, human IgG1, V domains shown) VH: KVQLVESGGALVKPGGSLKLSCAASGFTFSNYAMSWVRQTPEKRLEWVATISSSGSYTYFPDSVKGRFTISRDNAKNTLYLQMSSLRSEDTALYYCARYGYDEAWFASWGQGTLVTVSA VL: DVLMTQTPLSLPVSLGDQASISCRSSQTIVHSNGNTYLEWYLQKPGQSPKLLIYKVSKRFSGVPDRFSGSGSGTDFTLKISRVEAEDLGVYYCFQGSHFPRTFGGGTKLEIK , thanks.
A. 0.0622

Q. Need IC50 of vincristine on N6/ADR cells with antibody of B1.85 (antibody, human IgG1, V domains shown) VH: EVQLVESGGALVKPGGSLKLSCAASGFTFSNYGVSWVRQTPEKRLEWVATISSSGSYTYYPDIVRGRFTISRDNAKNTLYLQMSSLRSEDTAFYYCARGYGNFAWFAYWGQGTLVTVSA VL: DIQMTQSPLSLPVSLGDQASISCRSSQSIVHSTGNTYLEWYLQKPGQSPKLLIYKVSNRFSGVPDRFSGSGSGTDFTLKINRVEAEDLGVYYCFQGSHVPYTFGGGTKLEIK , thanks.
A. 0.0345

Q. Need IC50 of vincristine on N6/ADR cells with antibody of B1.178 (antibody, human IgG1, V domains shown) VH: EAQLVESGGALVKPGGSLKLSCSASGFTFSNYAMSWVRQTPEKRLEWVATISSGGTNTYYPGSVKGRFTIARDNAKNTLYLLMSSLRSEDTALYFCARYSNLAWFASWGQGTLVTVSA VL: DVVMTQTPLSLPVSLGDQASISCRSSQSIVHSNGNTYLEWYLQKPGQSPKFLISKVSNRFSGVPDRFSGSGSGTDFTLKISRVEAEDLGIYYCFQGSHVPYTFGGGTKLEIK , thanks.
A. 0.0528

Q. Need IC50 of vincristine on N6/ADR cells with antibody of B1.278 (antibody, human IgG1, V domains shown) VH: QVQLQQSGPELVKPGASVKISCKASGYSFTGYFMNWVMQSHGKSLEWIGRINPYNGDTFYNQKFKGKATLTVDKSSGTAHMELRSLASEDSAVYYCARCYYYGSSSYGMDYWGQGTSVTVSS VL: QIVLTQSPASLAVSLGQRATISCRASESVHNYGVSFMNWFQQRPGQPPKLLIHAASHQGSGVPARFTGSGSGTDFSLNIHPMEEDDIAMYFCQQSKEVPLTFGAGTKLKLK , thanks.
A. 0.029

Q. Need IC50 of vincristine on N6/ADR cells with antibody of B1.225 (antibody, human IgG1, V domains shown) VH: EVQLVESGGALVKPGGSLKLSCAASGFTFSNYGMSWVRQTPEKRLEWVATISSGGSYTYYPDTVKGRFTISRDNAKNTLHLQMSSLRSEDTALYYCARRGTNDAWFGYWGQGTLVTVSA VL: DVVMTQTPLSLPVSLGDQASISCRFSQSIVHSNGNTYLEWYLQKPGQSPKLLIYKVSNRFFGVPDRFSGSGSGTDFTLKISRVEAEDLGVYFCFQGSHVPQYTFGGGTKLEIK , thanks.
A. 0.0035
